- Tested on: sensitized mesenteric mast cells
- assayExplanation: Effect on the Disruption of the Sensitized Mast Cells
- Type: cell-based, rat
- condition: 10^-5 g/ml, 5 minutes prior to the treatment of antigen
metric: Inhibition percentage (mast cell disruption) (%)
State the answer as a number, implicitly in %.

COc1ccc(C=CC(=O)Nc2ccccc2C(=O)O)cc1OC [Compound No. 33]: 33
O=C(O)c1cc(=O)c2c(OCC(O)COc3cccc4oc(C(=O)O)cc(=O)c34)cccc2o1 [Disodium cromoglycate]: 16
CCCOc1ccc(C=CC(=O)Nc2ccccc2C(=O)O)cc1OC [compound 54]: 37

Look up Inhibition percentage (mast cell disruption): COc1cccc(C=CC(=O)Nc2cccc(C(=O)O)c2)c1 [compound 15] 18

Look up Inhibition percentage (mast cell disruption): COc1ccc(C(C)=CC(=O)Nc2ccccc2C(=O)O)cc1OC 45
